The measured values listed here are drawn from ChEMBL document CHEMBL2413072.

tested on: SF-539; test: Growth inhibition of human SF539 cells assessed as cell growth at 10 uM by sulforhodamine B assay; format: functional; conditions: read-out: Activity

>  <chem.smiles>
CC1(C)C[C@@H](O)[C@]2(C(=O)O)CC[C@]3(C)C(=CC[C@@H]4[C@@]5(C)C/C(=C\C=C\c6ccccc6)C(=O)C(C)(C)[C@@H]5CC[C@]43C)[C@@H]2C1

>  <growth at 10 µM [%]>
91.9

$$$$
>  <chem.smiles>
CC1(C)C[C@@H](O)[C@]2(C(=O)O)CC[C@]3(C)C(=CC[C@@H]4[C@@]5(C)CC[C@H](O)C(C)(C)[C@@H]5CC[C@]43C)[C@@H]2C1

>  <growth at 10 µM [%]>
106

$$$$
>  <chem.smiles>
CC1(C)C[C@@H](O)[C@]2(C(=O)O)CC[C@]3(C)C(=CC[C@@H]4[C@@]5(C)CCC(=O)C(C)(C)[C@@H]5CC[C@]43C)[C@@H]2C1

>  <growth at 10 µM [%]>
106

$$$$
>  <chem.smiles>
CC(C)=CC(=O)O[C@@H]1CC(C)(C)C[C@H]2C3=CC[C@@H]4[C@@]5(C)CCC(=O)C(C)(C)[C@@H]5CC[C@@]4(C)[C@]3(C)CC[C@@]12C(=O)O

>  <growth at 10 µM [%]>
65

$$$$
>  <chem.smiles>
COc1cc(/C=C2\C[C@]3(C)[C@H]4CC=C5[C@@H]6CC(C)(C)C[C@@H](O)[C@]6(C(=O)O)CC[C@@]5(C)[C@]4(C)CC[C@H]3C(C)(C)C2=O)ccc1O

>  <growth at 10 µM [%]>
96.1

$$$$

---

tested on: SK-MEL-2; experiment: Growth inhibition of human SK-MEL-2 cells assessed as growth inhibition at 10 uM by sulforhodamine B assay; assay type: functional; details: read-out: GI

>  <chem.smiles>
C/C=C(/C)C(=O)O[C@@H]1CC(C)(C)C[C@H]2C3=CC[C@@H]4[C@@]5(C)CCC(=O)C(C)(C)[C@@H]5CC[C@@]4(C)[C@]3(C)CC[C@@]12C(=O)O

>  <inhibition of growth at 10 µM>
22.9%

$$$$
>  <chem.smiles>
CC(C)=CC(=O)O[C@@H]1CC(C)(C)C[C@H]2C3=CC[C@@H]4[C@@]5(C)CCC(=O)C(C)(C)[C@@H]5CC[C@@]4(C)[C@]3(C)CC[C@@]12C(=O)O

>  <inhibition of growth at 10 µM>
21.8%

$$$$
>  <chem.smiles>
C/C=C(/C)C(=O)O[C@@H]1CC(C)(C)C[C@H]2C3=CC[C@@H]4[C@@]5(C)CC[C@H](O)C(C)(C)[C@@H]5CC[C@@]4(C)[C@]3(C)CC[C@@]12C(=O)O

>  <inhibition of growth at 10 µM>
45.9%

$$$$
>  <chem.smiles>
COc1cc(/C=C2\C[C@]3(C)[C@H]4CC=C5[C@@H]6CC(C)(C)C[C@@H](O)[C@]6(C(=O)O)CC[C@@]5(C)[C@]4(C)CC[C@H]3C(C)(C)C2=O)ccc1O

>  <inhibition of growth at 10 µM>
< 10%

$$$$
>  <chem.smiles>
CC1(C)C[C@@H](O)[C@]2(C(=O)O)CC[C@]3(C)C(=CC[C@@H]4[C@@]5(C)CCC(=O)C(C)(C)[C@@H]5CC[C@]43C)[C@@H]2C1

>  <inhibition of growth at 10 µM>
< 10%

$$$$

---

system: SN12C; experiment: Growth inhibition of human SN12C cells by sulforhodamine B assay; assay type: functional; conditions: read-out: GI50
The entries below are paired with their reported GI50.
measurement.label: GI50 (nM)

>  <chem.smiles>
CC(C)=CC(=O)O[C@@H]1CC(C)(C)C[C@H]2C3=CC[C@@H]4[C@@]5(C)CC[C@H](O)C(C)(C)[C@@H]5CC[C@@]4(C)[C@]3(C)CC[C@@]12C(=O)O

>  <reading>
2880

$$$$
>  <chem.smiles>
C/C=C(/C)C(=O)O[C@@H]1CC(C)(C)C[C@H]2C3=CC[C@@H]4[C@@]5(C)CCC(=O)C(C)(C)[C@@H]5CC[C@@]4(C)[C@]3(C)CC[C@@]12C(=O)O

>  <reading>
3470

$$$$
>  <chem.smiles>
CC(C)=CC(=O)O[C@@H]1CC(C)(C)C[C@H]2C3=CC[C@@H]4[C@@]5(C)CCC(=O)C(C)(C)[C@@H]5CC[C@@]4(C)[C@]3(C)CC[C@@]12C(=O)O

>  <reading>
3120

$$$$
>  <chem.smiles>
C/C=C(/C)C(=O)O[C@@H]1CC(C)(C)C[C@H]2C3=CC[C@@H]4[C@@]5(C)CC[C@H](O)C(C)(C)[C@@H]5CC[C@@]4(C)[C@]3(C)CC[C@@]12C(=O)O

>  <reading>
1630

$$$$
>  <chem.smiles>
CC1(C)C[C@@H](O)[C@]2(C(=O)O)CC[C@]3(C)C(=CC[C@@H]4[C@@]5(C)C/C(=C\C=C\c6ccccc6)C(=O)C(C)(C)[C@@H]5CC[C@]43C)[C@@H]2C1

>  <reading>
2920

$$$$

---

test system: OVCAR-4; assay: Growth inhibition of human OVCAR4 cells by sulforhodamine B assay; assay type: functional; conditions: read-out: pTGI (converted)
The entries below are paired with their reported TGI.
measurement.label: TGI (µM)

>  <chem.smiles>
CC1(C)C[C@@H](O)[C@]2(C(=O)O)CC[C@]3(C)C(=CC[C@@H]4[C@@]5(C)C/C(=C\C=C\c6ccccc6)C(=O)C(C)(C)[C@@H]5CC[C@]43C)[C@@H]2C1

>  <measurement.label>
TGI

>  <value.modifier>
=

>  <reading>
15.5

$$$$
>  <chem.smiles>
C/C=C(/C)C(=O)O[C@@H]1CC(C)(C)C[C@H]2C3=CC[C@@H]4[C@@]5(C)CCC(=O)C(C)(C)[C@@H]5CC[C@@]4(C)[C@]3(C)CC[C@@]12C(=O)O

>  <measurement.label>
TGI

>  <value.modifier>
>

>  <reading>
100

$$$$
>  <chem.smiles>
CC(C)=CC(=O)O[C@@H]1CC(C)(C)C[C@H]2C3=CC[C@@H]4[C@@]5(C)CCC(=O)C(C)(C)[C@@H]5CC[C@@]4(C)[C@]3(C)CC[C@@]12C(=O)O

>  <measurement.label>
TGI

>  <value.modifier>
>

>  <reading>
100

$$$$
>  <chem.smiles>
CC(C)=CC(=O)O[C@@H]1CC(C)(C)C[C@H]2C3=CC[C@@H]4[C@@]5(C)CC[C@H](O)C(C)(C)[C@@H]5CC[C@@]4(C)[C@]3(C)CC[C@@]12C(=O)O

>  <measurement.label>
TGI

>  <value.modifier>
=

>  <reading>
35.5

$$$$
>  <chem.smiles>
C/C=C(/C)C(=O)O[C@@H]1CC(C)(C)C[C@H]2C3=CC[C@@H]4[C@@]5(C)CC[C@H](O)C(C)(C)[C@@H]5CC[C@@]4(C)[C@]3(C)CC[C@@]12C(=O)O

>  <measurement.label>
TGI

>  <value.modifier>
=

>  <reading>
3.72

$$$$

---

test system: A498; assay: Growth inhibition of human A498 cells assessed as cell growth at 10 uM by sulforhodamine B assay; assay type: functional; settings: read-out: Activity
The entries below are paired with their reported growth at 10 µM.

>  <chem.smiles>
CC(C)=CC(=O)O[C@@H]1CC(C)(C)C[C@H]2C3=CC[C@@H]4[C@@]5(C)CC[C@H](O)C(C)(C)[C@@H]5CC[C@@]4(C)[C@]3(C)CC[C@@]12C(=O)O

>  <unit.symbol>
%

>  <growth at 10 µM>
100

$$$$
>  <chem.smiles>
C/C=C(/C)C(=O)O[C@@H]1CC(C)(C)C[C@H]2C3=CC[C@@H]4[C@@]5(C)CC[C@H](O)C(C)(C)[C@@H]5CC[C@@]4(C)[C@]3(C)CC[C@@]12C(=O)O

>  <unit.symbol>
%

>  <growth at 10 µM>
-31.8

$$$$
>  <chem.smiles>
CC1(C)C[C@@H](O)[C@]2(C(=O)O)CC[C@]3(C)C(=CC[C@@H]4[C@@]5(C)CCC(=O)C(C)(C)[C@@H]5CC[C@]43C)[C@@H]2C1

>  <unit.symbol>
%

>  <growth at 10 µM>
91.2

$$$$
>  <chem.smiles>
C/C=C(/C)C(=O)O[C@@H]1CC(C)(C)C[C@H]2C3=CC[C@@H]4[C@@]5(C)CCC(=O)C(C)(C)[C@@H]5CC[C@@]4(C)[C@]3(C)CC[C@@]12C(=O)O

>  <unit.symbol>
%

>  <growth at 10 µM>
76.2

$$$$
>  <chem.smiles>
CC1(C)C[C@@H](O)[C@]2(C(=O)O)CC[C@]3(C)C(=CC[C@@H]4[C@@]5(C)CC[C@H](O)C(C)(C)[C@@H]5CC[C@]43C)[C@@H]2C1

>  <unit.symbol>
%

>  <growth at 10 µM>
102

$$$$
